Test system: MCF-7 cells
Assay: In vitro cell activity assay (MCF-7, insulin stimulation, ELISA-One)
Format: cell-based
Conditions: Homo sapiens, MCF7, compound 2 hours in serum-free media, then 10 μg/ml insulin 30 min
pIC50: −log10 of the molar value.
Assay endpoint: pIC50

Below, 6 compounds whose answers are already recorded.
Compound: COc1ncc(-c2ccc3ncc(OCC4CCCN4)c(=O)n3c2)cc1NS(=O)(=O)c1ccc(F)cc1Cl (stereo not drawn)
System: MCF-7 cells
pIC50: < 6.60

Compound: COc1ncc(-c2ccc3ncc(OCCN4CCOCC4)c(=O)n3c2)cc1NS(=O)(=O)c1ccccc1F
System: MCF-7 cells
pIC50: 6.60 to 7.00

Compound: COc1ncc(-c2ccc3ncc(OCCN4CCC(C)(O)CC4)c(=O)n3c2)cc1NS(=O)(=O)c1ccc(F)cc1Cl
System: MCF-7 cells
pIC50: 6.60 to 7.00

Compound: COc1ncc(-c2ccc3ncc(OCCN4CCCC4)c(=O)n3c2)cc1NS(=O)(=O)c1ccc(F)cc1Cl
System: MCF-7 cells
pIC50: 7.00 to 7.30

Compound: COc1ncc(-c2ccc3ncc(OCCN(C)C)c(=O)n3c2)cc1NS(=O)(=O)c1ccc(F)cc1Cl
System: MCF-7 cells
pIC50: ≥ 7.30

Compound: COc1ncc(-c2ccc3ncc(OCC4(C)CNC4)c(=O)n3c2)cc1NS(=O)(=O)c1ccc(F)cc1Cl
System: MCF-7 cells
pIC50: < 6.60

Quick one: pIC50 for "COc1ncc(-c2ccc3ncc(OCCN4CCN(CC(F)(F)F)CC4)c(=O)n3c2)cc1NS(=O)(=O)c1ccc(F)cc1Cl" ?
≥ 7.30

Item under review: "COc1ncc(-c2ccc3ncc(OCCN4CCOCC4)c(=O)n3c2)cc1NS(=O)(=O)c1ccc(F)c(F)c1" . Reported pIC50?
6.60 to 7.00

Data request, read-out pIC50, for "COc1ncc(-c2ccc3ncc(OCCN4CCOCC4)c(=O)n3c2)cc1NS(=O)(=O)c1ccc(F)cc1Cl"
≥ 7.30

###

System: MCF-7 cells
Experiment: In vitro cell activity assay (MCF-7, insulin stimulation, ELISA-One)
Format: cell-based
Conditions: Homo sapiens, MCF7, compound 2 hours in serum-free media, then 10 μg/ml insulin 30 min
pIC50: −log10 of the molar value.
Assay endpoint: pIC50

Recorded pIC50, per entry:
Compound: COc1ncc(-c2ccc3ncc(OCC(C)(C)N4CCOCC4)c(=O)n3c2)cc1NS(=O)(=O)c1ccc(F)cc1Cl
pIC50: 6.60 to 7.00
--
Compound: COc1ncc(-c2ccc3ncc(OCCNC(C)=O)c(=O)n3c2)cc1NS(=O)(=O)c1ccc(F)cc1Cl
pIC50: 6.60 to 7.00

MCF-7 cells / pIC50 / COc1ncc(-c2ccc3ncc(OCCN4CC5CC4CN5C)c(=O)n3c2)cc1NS(=O)(=O)c1sc(C)nc1C (stereo not shown) : value?
< 6.60

Item COc1ncc(-c2ccc3ncc(OCCN4CCOC(C)C4)c(=O)n3c2)cc1NS(=O)(=O)c1ccc(F)cc1Cl (stereo not shown) with MCF-7 cells - pIC50?
≥ 7.30

###

Biological target: PI3K (p110α) (Homo sapiens, UniProt P42336)
Sequence (P42336 whole entry): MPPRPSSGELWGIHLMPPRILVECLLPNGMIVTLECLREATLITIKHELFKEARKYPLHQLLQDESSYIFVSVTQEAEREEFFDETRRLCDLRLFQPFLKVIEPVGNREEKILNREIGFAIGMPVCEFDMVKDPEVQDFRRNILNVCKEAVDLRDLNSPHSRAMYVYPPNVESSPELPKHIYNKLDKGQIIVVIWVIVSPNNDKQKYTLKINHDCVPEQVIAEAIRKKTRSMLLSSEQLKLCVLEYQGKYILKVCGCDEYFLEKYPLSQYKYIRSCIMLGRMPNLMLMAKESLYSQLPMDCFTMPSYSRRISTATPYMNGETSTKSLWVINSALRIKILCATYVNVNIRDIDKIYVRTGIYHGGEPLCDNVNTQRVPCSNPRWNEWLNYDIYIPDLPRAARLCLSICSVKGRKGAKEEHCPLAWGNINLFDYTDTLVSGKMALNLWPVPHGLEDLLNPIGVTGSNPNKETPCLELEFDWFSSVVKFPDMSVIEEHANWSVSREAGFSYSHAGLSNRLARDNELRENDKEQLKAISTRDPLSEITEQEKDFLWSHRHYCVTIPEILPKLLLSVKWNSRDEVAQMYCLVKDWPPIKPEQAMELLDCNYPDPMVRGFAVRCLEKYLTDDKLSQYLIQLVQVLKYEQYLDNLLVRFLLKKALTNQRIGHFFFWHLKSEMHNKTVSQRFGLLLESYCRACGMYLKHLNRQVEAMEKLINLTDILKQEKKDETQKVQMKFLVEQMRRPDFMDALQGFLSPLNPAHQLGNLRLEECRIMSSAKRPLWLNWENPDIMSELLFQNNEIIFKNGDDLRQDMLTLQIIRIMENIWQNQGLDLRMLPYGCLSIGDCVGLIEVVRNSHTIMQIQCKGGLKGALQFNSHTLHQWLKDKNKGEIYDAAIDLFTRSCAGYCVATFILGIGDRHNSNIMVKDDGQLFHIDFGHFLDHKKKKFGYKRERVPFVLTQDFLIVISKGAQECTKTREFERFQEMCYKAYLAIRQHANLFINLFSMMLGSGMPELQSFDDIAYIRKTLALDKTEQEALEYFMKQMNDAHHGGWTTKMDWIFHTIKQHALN
Sequence (P27986 whole entry partner): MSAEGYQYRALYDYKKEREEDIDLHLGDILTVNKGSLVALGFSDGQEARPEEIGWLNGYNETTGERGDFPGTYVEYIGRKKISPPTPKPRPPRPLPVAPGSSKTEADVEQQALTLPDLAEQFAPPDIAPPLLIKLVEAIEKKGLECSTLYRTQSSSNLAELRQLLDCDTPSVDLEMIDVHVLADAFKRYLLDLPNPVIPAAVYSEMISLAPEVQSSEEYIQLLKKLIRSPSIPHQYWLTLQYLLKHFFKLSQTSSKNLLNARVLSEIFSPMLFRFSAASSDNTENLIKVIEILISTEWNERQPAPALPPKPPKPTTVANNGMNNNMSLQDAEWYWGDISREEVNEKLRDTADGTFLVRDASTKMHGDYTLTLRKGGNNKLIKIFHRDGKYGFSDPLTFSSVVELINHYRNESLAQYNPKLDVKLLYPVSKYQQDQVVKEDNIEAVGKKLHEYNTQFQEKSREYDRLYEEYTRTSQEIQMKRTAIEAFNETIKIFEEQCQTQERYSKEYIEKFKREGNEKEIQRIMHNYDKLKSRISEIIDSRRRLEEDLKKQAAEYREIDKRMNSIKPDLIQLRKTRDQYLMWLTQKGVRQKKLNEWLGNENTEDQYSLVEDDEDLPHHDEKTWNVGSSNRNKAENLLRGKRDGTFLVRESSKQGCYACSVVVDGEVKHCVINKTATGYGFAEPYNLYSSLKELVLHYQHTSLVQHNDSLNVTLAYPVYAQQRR
Assay: In vitro enzyme activity assay, PI3K (p110α) kinase, Method II (ADP-Glo assay)
Assay type: biochemical
Parameters: purchased Millipore 14-602-K
Details: read-out: PI3K (p110α) enzyme activity_IC50
Assay endpoint: IC50

Guide cases for IC50, answers given:
Compound: COc1ncc(-c2ccc3ncc(OCCn4ccc(C(F)(F)F)n4)c(=O)n3c2)cc1NS(=O)(=O)c1ccc(F)cc1F
IC50: 1 to 50 nM

Compound: COc1ncc(-c2ccc3ncc(OC(C)CN4CCOCC4)c(=O)n3c2)cc1NS(=O)(=O)c1ccc(F)cc1Cl (stereo not shown)
IC50: 1 to 50 nM

Compound: COc1ncc(-c2ccc3ncc(OCCNS(C)(=O)=O)c(=O)n3c2)cc1NS(=O)(=O)c1ccc(F)cc1Cl
IC50: ≤ 1 nM

Compound: COc1ncc(-c2ccc3ncc(OCCN4CCOCC4)c(=O)n3c2)cc1NC(=O)c1sc(C)nc1C
IC50: > 200 nM

Compound: COc1ncc(-c2ccc3ncc(OCCN4CCOCC4)c(=O)n3c2)cc1NC(=O)Nc1sc(C)nc1C
IC50: > 200 nM

Compound: COc1ncc(-c2ccc3ncc(OCCN4CCCC4=O)c(=O)n3c2)cc1NS(=O)(=O)c1sc(C)nc1C
IC50: ≤ 1 nM

Kindly review the next compound as well.
I'd like to know its IC50. The compound in question is "COc1ncc(-c2ccc3ncc(OCCN4CCOCC4)c(=O)n3c2)cc1S(=O)(=O)Nc1sc(C)nc1C"
> 200 nM
